test system: HepG2 (Liver) cancer cell line; experiment: Cytotoxic activity (United States NCI protocol), HepG2; format: cell-based; settings: Homo sapiens; HepG2; tumor growth inhibition; read-out: TGI
endpoint name: log10 IC (TGI) (log10 of the value in µM)
Lab note - IC (TGI) converted to log10 from values in µM.

Look over these answered cases.
{"molecule": "CN(C)c1ccc(C(N/N=C/c2ccco2)n2ccc3ccccc32)cc1 (centres unmarked)", "study system": "HepG2 (Liver) cancer cell line", "endpoint name": "log10 IC (TGI)", "result": 1.61}
{"molecule": "COc1cc(C(N/N=C/c2ccco2)n2ccc3ccccc32)ccc1O (centres unmarked)", "study system": "HepG2 (Liver) cancer cell line", "endpoint name": "log10 IC (TGI)", "result": 1.79}
{"molecule": "COc1cccc2c1C(=O)c1c(O)c3c(c(O)c1C2=O)C[C@@](O)(C(=O)CO)C[C@@H]3O[C@H]1C[C@H](N)[C@H](O)[C@H](C)O1 [Doxorubicin, reference compound]", "study system": "HepG2 (Liver) cancer cell line", "endpoint name": "log10 IC (TGI)", "result": -0.89}
{"molecule": "Oc1ccccc1C(N/N=C/c1ccco1)n1ccc2ccccc21 (centres unmarked)", "study system": "HepG2 (Liver) cancer cell line", "endpoint name": "log10 IC (TGI)", "result": 1.67}
{"molecule": "COc1ccc(C(N/N=C/c2ccco2)n2ccc3ccccc32)cc1 (centres unmarked)", "study system": "HepG2 (Liver) cancer cell line", "endpoint name": "log10 IC (TGI)", "result": 1.58}

For the molecule C(=N\NCn1ccc2ccccc21)/c1ccco1 , what log10 IC (TGI) is on record?
1.66

Fill blank: measured log10 IC (TGI) of the molecule Clc1ccc(C(N/N=C/c2ccco2)n2ccc3ccccc32)cc1 (centres unmarked) is ____.
-0.60

So what does the record say about log10 IC (TGI) for O=[N+]([O-])c1cccc(C(N/N=C/c2ccco2)n2ccc3ccccc32)c1 (centres unmarked) ?
1.36

---

test system: HeLa (Cervical) cancer cell line; assay: Cytotoxic activity (United States NCI protocol), HeLa; type: cell-based; conditions: Homo sapiens, tumor growth inhibition, read-out: TGI
Binary classification by IC (TGI), with 60 µM as an inclusive lower bound for T; all other cases are F.

{"molecule": "COc1ccc(C(N/N=C/c2ccco2)n2ccc3ccccc32)cc1 (centres unmarked)", "study system": "HeLa (Cervical) cancer cell line", "assigned category": "T"}

Determine whether measured IC (TGI) meets or exceeds 60 µM for CN(C)c1ccc(C(N/N=C/c2ccco2)n2ccc3ccccc32)cc1 (centres unmarked)
T

Please check the record Clc1ccc(C(N/N=C/c2ccco2)n2ccc3ccccc32)cc1 (centres unmarked) and state if its IC (TGI) is at or above 60 µM.
F

Is IC (TGI) at least 60 µM? Consider COc1cccc2c1C(=O)c1c(O)c3c(c(O)c1C2=O)C[C@@](O)(C(=O)CO)C[C@@H]3O[C@H]1C[C@H](N)[C@H](O)[C@H](C)O1 [Doxorubicin, reference compound]
F

Could you please find out whether COc1cc(C(N/N=C/c2ccco2)n2ccc3ccccc32)ccc1O (centres unmarked) has IC (TGI) that meets 60 µM or exceeds it?
F

Does Oc1ccccc1C(N/N=C/c1ccco1)n1ccc2ccccc21 (centres unmarked) have a reported IC (TGI) of at least 60 µM?
F

Quick check: does O=[N+]([O-])c1cccc(C(N/N=C/c2ccco2)n2ccc3ccccc32)c1 (centres unmarked) have IC (TGI) greater than or equal to 60 µM?
T

---

Entries and their CC50 values follow.
test system: HeLa (Cervical) cancer cell line; assay: Cytotoxic activity (United States NCI protocol), HeLa; type: cell-based; conditions: Homo sapiens, lethal concentration, read-out: LC50 (the source's name)
The reply should be a number in nM, with the unit left off.

Past entries and their recorded results:
{"molecule": "Clc1ccc(C(N/N=C/c2ccco2)n2ccc3ccccc32)cc1 (stereo not drawn) [Compound 1d]", "endpoint name": "CC50", "result": 500}
{"molecule": "COc1cccc2c1C(=O)c1c(O)c3c(c(O)c1C2=O)C[C@@](O)(C(=O)CO)C[C@@H]3O[C@H]1C[C@H](N)[C@H](O)[C@H](C)O1 [Doxorubicin, reference compound]", "endpoint name": "CC50", "result": 880}

Name the reported CC50 value associated with the molecule Oc1ccccc1C(N/N=C/c1ccco1)n1ccc2ccccc21 (stereo not drawn) [Compound 1f]
77400

---

Quick reference: CC50 of the listed items.
tested on: HeLa (Cervical) cancer cell line; experiment: Cytotoxic activity (United States NCI protocol), HeLa; format: cell-based; conditions: Homo sapiens, lethal concentration, read-out: LC50 (the source's name)
Please respond with the number in µM and leave the unit unwritten.

{"compound": "COc1cc(C(N/N=C/c2ccco2)n2ccc3ccccc32)ccc1O (centres unmarked)", "study system": "HeLa (Cervical) cancer cell line", "units label": "µM", "result": 58.9}

Please look up its CC50: C(=N\NCn1ccc2ccccc21)/c1ccco1
48.3

---

Lab note: GI50 readings collected with MCF-7 (Breast) cancer cell line for the following compounds.
# value in µM; strip the unit string

Take a look at these entries with their results.
{"compound": "COc1cc(C(N/N=C/c2ccco2)n2ccc3ccccc32)ccc1O (centres unmarked) [Compound 1g]", "GI50 [µM]": 34}
{"compound": "COc1ccc(C(N/N=C/c2ccco2)n2ccc3ccccc32)cc1 (centres unmarked) [Compound 1e]", "GI50 [µM]": 24.4}
{"compound": "Oc1ccccc1C(N/N=C/c1ccco1)n1ccc2ccccc21 (centres unmarked) [Compound 1f]", "GI50 [µM]": 18.6}
{"compound": "COc1cccc2c1C(=O)c1c(O)c3c(c(O)c1C2=O)C[C@@](O)(C(=O)CO)C[C@@H]3O[C@H]1C[C@H](N)[C@H](O)[C@H](C)O1 [Doxorubicin, reference compound]", "GI50 [µM]": 0.02}
{"compound": "CN(C)c1ccc(C(N/N=C/c2ccco2)n2ccc3ccccc32)cc1 (centres unmarked) [Compound 1h]", "GI50 [µM]": 12.9}
{"compound": "C(=N\\NCn1ccc2ccccc21)/c1ccco1 [Compound 1j]", "GI50 [µM]": 56}

API: value(readout= GI50, system= MCF-7 (Breast) cancer cell line, query= Clc1ccc(C(N/N=C/c2ccco2)n2ccc3ccccc32)cc1 (centres unmarked) [Compound 1d] )
0.89

Kindly state the measured GI50 obtained for O=[N+]([O-])c1cccc(C(N/N=C/c2ccco2)n2ccc3ccccc32)c1 (centres unmarked) [Compound 1b] with MCF-7 (Breast) cancer cell line.
46.1

---

Readings of CC50 for the listed compounds
test system: HeLa (Cervical) cancer cell line; assay: Cytotoxic activity (United States NCI protocol), HeLa; type: cell-based; conditions: Homo sapiens, lethal concentration, read-out: LC50 (the source's name)

Some entries whose results are on file:
{"compound": "O=[N+]([O-])c1cccc(C(N/N=C/c2ccco2)n2ccc3ccccc32)c1 (stereo not drawn) [Compound 1b]", "study system": "HeLa (Cervical) cancer cell line", "result": "> 100 µM"}
{"compound": "CN(C)c1ccc(C(N/N=C/c2ccco2)n2ccc3ccccc32)cc1 (stereo not drawn) [Compound 1h]", "study system": "HeLa (Cervical) cancer cell line", "result": "> 100 µM"}

Alright, here's another compound for you.
Requested read-out: CC50. Entry: COc1ccc(C(N/N=C/c2ccco2)n2ccc3ccccc32)cc1 (stereo not drawn) [Compound 1e]
> 100 µM

Just for reference, paper PMC8144490 is where these values come from.
